Where do these numbers come from? They come from patent US20260092076A1.

Below: a set of entries, each annotated with reported pIC50.
system: NLRP3 (Homo sapiens)
Sequence (Q96P20 whole entry): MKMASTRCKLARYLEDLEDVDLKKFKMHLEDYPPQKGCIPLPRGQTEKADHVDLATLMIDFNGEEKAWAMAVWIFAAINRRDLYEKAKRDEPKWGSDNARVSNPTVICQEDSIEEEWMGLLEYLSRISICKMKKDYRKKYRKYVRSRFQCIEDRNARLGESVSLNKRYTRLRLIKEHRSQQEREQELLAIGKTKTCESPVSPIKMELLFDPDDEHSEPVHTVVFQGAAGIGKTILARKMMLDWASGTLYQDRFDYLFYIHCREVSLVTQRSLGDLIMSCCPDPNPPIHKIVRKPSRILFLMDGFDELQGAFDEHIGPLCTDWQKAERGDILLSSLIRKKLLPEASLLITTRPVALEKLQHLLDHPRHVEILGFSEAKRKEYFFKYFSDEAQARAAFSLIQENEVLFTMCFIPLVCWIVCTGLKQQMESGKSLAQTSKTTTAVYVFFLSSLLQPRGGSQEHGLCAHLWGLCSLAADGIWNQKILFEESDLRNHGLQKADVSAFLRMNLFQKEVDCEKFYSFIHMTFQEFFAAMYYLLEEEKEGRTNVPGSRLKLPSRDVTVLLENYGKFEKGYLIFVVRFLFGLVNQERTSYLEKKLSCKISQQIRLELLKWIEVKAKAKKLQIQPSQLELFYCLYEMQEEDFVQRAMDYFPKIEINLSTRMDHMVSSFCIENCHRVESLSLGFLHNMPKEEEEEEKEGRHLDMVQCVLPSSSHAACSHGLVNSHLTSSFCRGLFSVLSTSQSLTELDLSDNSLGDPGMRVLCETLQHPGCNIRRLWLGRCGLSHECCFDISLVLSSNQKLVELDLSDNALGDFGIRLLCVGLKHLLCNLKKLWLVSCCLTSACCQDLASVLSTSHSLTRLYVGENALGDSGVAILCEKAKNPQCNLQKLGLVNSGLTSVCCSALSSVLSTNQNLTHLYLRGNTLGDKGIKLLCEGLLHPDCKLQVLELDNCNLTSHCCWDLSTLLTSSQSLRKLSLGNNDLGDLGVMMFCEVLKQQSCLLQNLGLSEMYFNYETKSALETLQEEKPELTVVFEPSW
procedure.summary: Human whole blood IL-1β release assay
Type: cell-based
measurement.parameters: human whole blood with 1 μg/ml LPS, compound 3 hours, nigericin 10 μM 1 hr, IL-1β by AlphaLisa
A value of pIC50 is the negative decimal logarithm of a concentration given in moles per litre.

Solved cases below.
Cc1cc(Cl)cc(O)c1-c1ccc2oc(N3CCc4ncncc4C3)nc2n1 ... 6.46
Cc1cc(Cl)cc(O)c1-c1ccc2oc(N3CCc4[nH]c(=O)ccc4C3)nc2n1 ... 6.17
Cc1cc(Cl)cc(O)c1-c1ccc2oc(N3Cc4ccncc4C3)nc2n1 ... 6.31
Cc1cc(Cl)cc(O)c1-c1ccc2oc(N3Cc4c[nH]nc4C3)nc2n1 ... 6.52
Cc1cc(C#N)cc(O)c1-c1ccc2oc(N3Cc4ccncc4C3)nc2n1 ... 5.65

Could you now consider this next molecule?
Form field pIC50 for item Cc1cc(Cl)cc(O)c1-c1ccc2oc(N3CCc4n[nH]cc4C3)nc2n1 on NLRP3 (Homo sapiens): 6.85
